# Measurement notes: in vitro
# Assay type: in vitro ADME
# Run conditions: human, Caco-2
Attribute measured: Papp (×10⁻⁶ cm/s)
Field format: number, assumed ×10⁻⁶ cm/s, no unit text.

These recorded examples may help you get a feel for the data.
# Compound, Observed result
rows = [
    ("CC(C)NCC(O)COc1cccc2ccccc12 (centres unmarked) [Propranolol, reference compound]", 19.3),
    ("CCc1cc(Nc2cc3ncn(CCCCCOC)c3c(=O)[nH]2)ccc1C [Compound 17]", 39.6),
    ("CCc1cc(Nc2nc3ncn(CCCCO)c3c(=O)[nH]2)ccc1C [Compound 18]", 0.56),
    ("O=c1[nH]c(NCc2ccc(Cl)c(Cl)c2)nc2ncn(CCCCN3CCOCC3)c12 [Compound 10]", 0.01),
]

Now consider the entry below.
Q: Please look at this compound and report its Papp: COCCCCCn1cnc2cc(NCc3ccc(Cl)c(Cl)c3)[nH]c(=O)c21 [Compound 3]
Ans: 13.8

* * *

# Experimental target: B.s. pol IIIE (Bacillus subtilis, UniProt O34623)
# Sequence (O34623 whole entry): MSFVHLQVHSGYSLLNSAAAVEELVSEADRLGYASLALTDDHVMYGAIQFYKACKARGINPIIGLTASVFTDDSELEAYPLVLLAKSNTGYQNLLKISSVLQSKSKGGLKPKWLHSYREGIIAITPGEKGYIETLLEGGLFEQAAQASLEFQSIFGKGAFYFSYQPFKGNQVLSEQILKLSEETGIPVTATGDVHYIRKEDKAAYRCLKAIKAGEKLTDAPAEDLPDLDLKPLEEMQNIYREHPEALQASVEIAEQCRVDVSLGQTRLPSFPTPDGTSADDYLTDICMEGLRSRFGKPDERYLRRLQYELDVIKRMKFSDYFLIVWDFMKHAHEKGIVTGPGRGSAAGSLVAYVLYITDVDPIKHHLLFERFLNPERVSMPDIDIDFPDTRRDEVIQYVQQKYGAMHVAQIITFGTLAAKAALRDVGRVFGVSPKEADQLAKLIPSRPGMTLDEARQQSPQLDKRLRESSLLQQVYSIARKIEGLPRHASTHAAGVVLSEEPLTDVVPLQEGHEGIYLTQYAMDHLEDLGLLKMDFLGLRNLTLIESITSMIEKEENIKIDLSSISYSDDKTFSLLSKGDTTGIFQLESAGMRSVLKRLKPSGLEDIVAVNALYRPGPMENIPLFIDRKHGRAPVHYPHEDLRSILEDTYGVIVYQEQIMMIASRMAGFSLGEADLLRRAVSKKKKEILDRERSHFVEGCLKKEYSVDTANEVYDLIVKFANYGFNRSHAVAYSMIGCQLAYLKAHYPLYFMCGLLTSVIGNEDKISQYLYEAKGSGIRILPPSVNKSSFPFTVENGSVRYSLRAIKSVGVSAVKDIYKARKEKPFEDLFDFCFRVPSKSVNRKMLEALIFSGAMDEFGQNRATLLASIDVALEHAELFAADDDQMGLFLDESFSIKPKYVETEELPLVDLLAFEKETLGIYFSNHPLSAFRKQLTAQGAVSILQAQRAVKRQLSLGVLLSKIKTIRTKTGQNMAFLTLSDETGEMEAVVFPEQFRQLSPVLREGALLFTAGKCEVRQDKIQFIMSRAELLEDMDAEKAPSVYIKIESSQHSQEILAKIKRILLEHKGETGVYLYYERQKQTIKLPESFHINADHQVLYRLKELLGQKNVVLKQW
# Measurement notes: biochemical
# Assay type: biochemical
Attribute measured: pKi
Reminder that pKi means the negative base-10 logarithm of the concentration expressed in mol/L.

These recorded examples may help you get a feel for the data.
# Structure string, Experimental target, pKi
rows = [
    ("CCc1cc(Nc2cc3ncn(CCCCCOC)c3c(=O)[nH]2)ccc1C", "B.s. pol IIIE (Bacillus subtilis, UniProt O34623)", 3.31),
    ("CCc1cc(Nc2nc3ncn(CCCCCOC)c3c(=O)[nH]2)ccc1C", "B.s. pol IIIE (Bacillus subtilis, UniProt O34623)", 3.40),
    ("COCCCCn1c(C)nc2cc(NCc3ccc(Cl)c(Cl)c3)[nH]c(=O)c21", "B.s. pol IIIE (Bacillus subtilis, UniProt O34623)", 5.60),
]

Q: Retrieve pKi on B.s. pol IIIE (Bacillus subtilis, UniProt O34623); query COCCCCCn1cnc2cc(NCc3ccc(Cl)c(Cl)c3)[nH]c(=O)c21
Ans: 6.38

Cited source for all entries: patent US6926763B2
